studySystem: hERG (Homo sapiens, UniProt Q12809)
Construct: expressed in transfected cells; host or cells: Chinese Hamster Ovary cells (hERG-CHO), stably transfected
Sequence (Q12809 whole entry): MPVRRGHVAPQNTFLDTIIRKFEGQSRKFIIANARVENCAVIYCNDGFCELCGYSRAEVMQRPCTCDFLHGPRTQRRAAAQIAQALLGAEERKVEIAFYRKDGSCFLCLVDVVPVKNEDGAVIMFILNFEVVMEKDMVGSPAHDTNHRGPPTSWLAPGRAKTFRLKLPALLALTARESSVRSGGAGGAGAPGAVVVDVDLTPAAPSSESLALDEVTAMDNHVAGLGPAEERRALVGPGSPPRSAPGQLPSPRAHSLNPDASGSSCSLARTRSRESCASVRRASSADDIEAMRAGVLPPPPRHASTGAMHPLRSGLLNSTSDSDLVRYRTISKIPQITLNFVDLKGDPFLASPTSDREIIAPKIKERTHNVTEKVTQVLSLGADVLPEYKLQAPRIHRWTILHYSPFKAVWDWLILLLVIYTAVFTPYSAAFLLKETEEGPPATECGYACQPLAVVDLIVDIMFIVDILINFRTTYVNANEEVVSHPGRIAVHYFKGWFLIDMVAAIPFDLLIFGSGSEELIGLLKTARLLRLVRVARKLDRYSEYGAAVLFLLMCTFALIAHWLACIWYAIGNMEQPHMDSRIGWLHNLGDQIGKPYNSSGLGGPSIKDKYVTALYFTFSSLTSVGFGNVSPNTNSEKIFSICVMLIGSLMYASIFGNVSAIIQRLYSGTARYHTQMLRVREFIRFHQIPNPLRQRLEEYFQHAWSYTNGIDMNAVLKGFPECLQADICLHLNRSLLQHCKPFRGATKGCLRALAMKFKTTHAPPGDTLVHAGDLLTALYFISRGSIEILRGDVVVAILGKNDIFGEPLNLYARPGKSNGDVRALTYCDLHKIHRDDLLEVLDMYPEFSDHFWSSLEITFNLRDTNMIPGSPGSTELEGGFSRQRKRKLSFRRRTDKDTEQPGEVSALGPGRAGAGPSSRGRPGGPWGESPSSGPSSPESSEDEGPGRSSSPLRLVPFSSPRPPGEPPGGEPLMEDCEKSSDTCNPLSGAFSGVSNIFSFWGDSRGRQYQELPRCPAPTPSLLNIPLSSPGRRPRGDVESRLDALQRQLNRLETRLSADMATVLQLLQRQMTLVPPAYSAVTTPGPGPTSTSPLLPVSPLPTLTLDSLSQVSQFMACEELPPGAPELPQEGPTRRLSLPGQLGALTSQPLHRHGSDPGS
measurementProtocol: hERG Ion Channel Assay (Q-patch, hERG-CHO cells)
Assay type: cell-based
conditionDetails: human, CHO cells stably transfected with hERG (hERG-CHO), pH 7.4, 30 μM; a lab-scale batch was tested
assayMetric: inhibition at 5 min, 30 µM (%)
Please reply with the bare figure in % and do not write the unit itself.

Value wanted: inhibition at 5 min, 30 µM (hERG (Homo sapiens, UniProt Q12809)) of entry C[C@]1(O)CC[C@@H](NS(=O)(=O)c2ccc(-c3ccc(F)cc3F)cc2)CC1 [ABD899, reference compound]
100
